Sourced from PubChem BioAssay AID1159580

# method: chemical genetic growth profiling, strain panel (AID 1159580);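 further: tested at 20 µM; growth read once vehicle control cultures reached saturation at 30 °C; 1 = growth at the plate median or of vehicle wells; lower values mean less growth of the strain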
# protocolConditions: S. cerevisiae deletion strains, growth OD, locus YHR094C, strain hxt1, active compounds read low
About 2,000 (36%) of roughly 5,500 compounds were called active. Another 18% or so got no clear call; they are omitted. Some of the results follow.
reportedProperty: normalized growth
Response field accepts a number only; no unit should be typed.

| molecule | testValue |
| --- | --- |
| Cc1ccc(Cl)c(Nc2ccccc2C(=O)O)c1Cl | 0.869 |
| CC[C@H](C)C(=O)O[C@H]1C[C@@H](C)C=C2C=C[C@H](C)[C@H](CC[C@@H]3C[C@@H](O)CC(=O)O3)[C@H]21 | 0.989 |
| C=CCCCCCCCCCCCC(O)CC(O)COC(C)=O (stereo not given) (tested in a mixture with another compound) | 0.992 |
| Nc1ccn(C2O[C@H](CO)[C@@H](O)[C@@H]2O)c(=O)n1 (stereo not given in full) | 0.996 |
| Cn1c(=O)c2[nH]cnc2n(C)c1=O | 0.985 |

Value of normalized growth reported for the molecule Nc1ccc(N=Nc2ccccc2)c(N)n1 is 1.02

Value of normalized growth reported for the molecule OC(Cn1cncn1)(Cn1cncn1)c1ccc(F)cc1F is 1.01

Value of normalized growth reported for the molecule CCCCCCOc1ccccc1C(N)=O is 0.765

Value of normalized growth reported for the molecule O=C(C1CCCCC1)N1CC(=O)N2CCc3ccccc3C2C1 (stereo not given) is 1.01

Value of normalized growth reported for the molecule NS(=O)(=O)c1cc2c(cc1Cl)NC(C(Cl)Cl)NS2(=O)=O (stereo not given) is 1.01
